biological target: EP300 BRD (Homo sapiens (Human), UniProt Q09472); experiment: EP300 AlphaScreen bromodomain (BRD) binding test
Sequence (Q09472 1049-1156): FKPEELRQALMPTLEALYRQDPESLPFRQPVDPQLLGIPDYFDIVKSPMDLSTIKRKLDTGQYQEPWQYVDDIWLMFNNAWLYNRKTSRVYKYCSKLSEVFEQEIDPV
pIC50: −log10 of the molar value.

molecule	pIC50
CCO[C@H]1CC[C@H](n2c([C@@H]3CCOC(=O)N3c3ccc(F)c(F)c3)nc3cc(-c4c(C)noc4C)ccc32)CC1 [Compound 171]	8.62
CO[C@H]1CC[C@H](n2c([C@@H]3CCOC(=O)N3c3ccc(Cl)c(F)c3)nc3cc(-c4c(C)noc4C)ccc32)CC1 [Compound 117]	9.14
CO[C@H]1C[C@@H](n2c([C@@H]3CCOC(=O)N3c3ccc(F)c(F)c3)nc3cc(-c4c(C)noc4C)ccc32)C1 [Compound 143]	8.57
